Listed next: entries and their corresponding inhibitory rate (%).
Target: T1, biotinylated hBLyS-ECD (human, UniProt Q9Y275 134-285, biotinylated with Biotin-X-X-NHS (molar ratio 7:1); sites not stated)
T1 construct: also called biotinylated immunogen; biotinylated hBLvS-ECD
T1 sequence (Q9Y275 134-285): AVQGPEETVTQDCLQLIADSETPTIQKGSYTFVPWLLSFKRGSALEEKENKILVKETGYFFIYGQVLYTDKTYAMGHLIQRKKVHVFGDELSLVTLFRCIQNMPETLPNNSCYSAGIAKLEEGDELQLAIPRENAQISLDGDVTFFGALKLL
Assay: competition ELISA; competitor 67A2E1D10
Report the figure in % without appending any unit label.

{"binder": "78C11D2D12 (antibody, V domains shown, Mouse hybridoma antibody purified on Protein G) VH: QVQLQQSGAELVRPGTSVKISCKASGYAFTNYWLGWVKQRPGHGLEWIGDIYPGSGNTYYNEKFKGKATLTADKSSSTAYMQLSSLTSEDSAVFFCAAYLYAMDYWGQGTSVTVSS VL: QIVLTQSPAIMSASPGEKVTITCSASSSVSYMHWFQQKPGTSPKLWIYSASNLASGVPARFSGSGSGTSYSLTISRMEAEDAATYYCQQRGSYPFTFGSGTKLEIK", "result.number": 95}

We now examine a further binder.
Endpoint output: inhibitory rate (%) of 97A3C2H4 (antibody, V domains shown, Mouse hybridoma antibody purified on Protein G) VH: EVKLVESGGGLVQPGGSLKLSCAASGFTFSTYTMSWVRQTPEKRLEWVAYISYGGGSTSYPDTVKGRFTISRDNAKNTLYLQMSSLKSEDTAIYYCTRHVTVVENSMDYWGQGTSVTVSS VL: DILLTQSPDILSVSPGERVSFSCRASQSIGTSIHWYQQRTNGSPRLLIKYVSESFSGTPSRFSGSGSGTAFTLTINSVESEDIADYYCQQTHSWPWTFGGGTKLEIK . Value?
96
